Assay type: physicochemical
RUN_PARAMETERS: method [a]: HPLC/LC-MS on reversed phase at pH 2.7, 0.1% formic acid in water / acetonitrile, linear gradient 10% to 95% acetonitrile

COMPOUND: CC1(C(=O)NCc2ccnc(N3CCCC3)c2)CC(c2ccc3ncc(Br)cc3c2)=NO1 (centres unmarked)
log P: 1.53^[a]

COMPOUND: CCN1CCCC1CNC(=O)C1(C)CC(c2ccc3ncc(Br)cc3c2)=NO1 (centres unmarked)
log P: 1.37^[a]

COMPOUND: C#Cc1cnc2ccc(C3=NOC(C)(C(=O)NCc4ccc(Cl)cc4Cl)C3)cc2c1 (centres unmarked)
log P: 3.73^[a]

COMPOUND: CCn1cc(CNC(=O)C2(CC)CC(c3ccc4ncc(Br)cc4c3)=NO2)c(C)n1 (centres unmarked)
log P: 2.66^[a]

COMPOUND: CC(C)NC(=O)C1(CF)CC(c2ccc3ncc(Br)cc3c2)=NO1 (centres unmarked)
log P: 2.46^[a]

COMPOUND: C#Cc1cnc2ccc(C3=NOC(C)(C(=O)NCc4ccncc4)C3)cc2c1 (centres unmarked)
log P: 1.2^[a]

COMPOUND: CCOCCCNC(=O)C1(C(F)(F)F)CC(c2ccc3ncc(Br)cc3c2)=NO1 (centres unmarked)
log P: 3.57^[a]

COMPOUND: CC1(C(=O)NCc2ccc3c(c2)CCO3)CC(c2ccc3ncc(Br)cc3c2)=NO1 (centres unmarked)
log P: 3.13^[a]

COMPOUND: CCn1cc(CNC(=O)C2(C)CC(c3cc4cc(Br)cnc4c(F)c3OC)=NO2)c(C)n1 (centres unmarked)
log P: 2.47^[a]

COMPOUND: CCn1cc(CNC(=O)C2(C)CC(c3ccc4ncc(I)cc4c3)=NO2)c(C)n1 (centres unmarked)
log P: 2.49^[a]

COMPOUND: C#Cc1cnc2ccc(C3=NOC(C)(C(=O)NCc4nncn4CC)C3)cc2c1 (centres unmarked)
log P: 1.54^[a]

COMPOUND: CCC1(C(=O)NC2CC2)CC(c2ccc3ncc(Br)cc3c2)=NO1 (centres unmarked)
log P: 2.75^[a]

COMPOUND: C#Cc1cnc2ccc(C3=NOC(C)(C(=O)NCc4cn(CC)nc4C)C3)cc2c1 (centres unmarked)
log P: 2.14^[a]

COMPOUND: C#Cc1cnc2ccc(C3=NOC(C)(C(=O)NCC4CCOC4)C3)cc2c1 (centres unmarked)
log P: 1.98^[a]

COMPOUND: CC1(C(=O)NCc2cnn(Cc3ccccc3)c2)CC(c2ccc3ncc(Br)cc3c2)=NO1 (centres unmarked)
log P: 2.94^[a]

COMPOUND: CC1(C(=O)NCC[Si](C)(C)C)CC(c2ccc3ncc(Br)cc3c2)=NO1 (centres unmarked)
log P: 4.14^[a]

COMPOUND: CCC(C)NC(=O)C1(C)CC(c2cc3cc(Br)cnc3c(F)c2OC)=NO1 (centres unmarked)
log P: 3.29^[a]
